Target: DRB1*1501 (Homo sapiens, UniProt P01903+P01911)
Assay: biochemical
Attribute Measured: IC50 (nM)
Return type: number; implicit unit nM.

Worked cases, IC50 given:
- Molecule: "CC[C@H](C)[C@H](NC(=O)[C@H](CC(C)C)NC(=O)[C@H](CCCNC(=N)N)NC(=O)CNC(=O)[C@@H](N)CC(N)=O)C(=O)N[C@H](C(=O)N[C@@H](C)C(=O)N[C@@H](CC(N)=O)C(=O)N1CCC[C@H]1C(=O)N[C@H](C(=O)N[C@H](C(=O)N[C@H](C(=O)N[C@@H](CCCCN)C(=O)N[C@@H](CCCCN)C(=O)N[C@@H](CCC(=O)O)C(=O)O)[C@@H](C)O)C(C)C)C(C)C)[C@@H](C)O [Envelope 346-360]"
  Target Or Test System: "DRB1*1501 (Homo sapiens, UniProt P01903+P01911)"
  Unit Spec: "nM"
  IC50: 332
- Molecule: "CC[C@H](C)[C@H](NC(=O)[C@H](CCCCN)NC(=O)CNC(=O)[C@H](CCC(=O)O)NC(=O)[C@@H](NC(=O)[C@H](CS)NC(=O)[C@H](CC(C)C)NC(=O)[C@H](CCCCN)NC(=O)[C@H](CCCNC(=N)N)NC(=O)[C@H](CC(C)C)NC(=O)[C@@H](NC(=O)[C@H](C)NC(=O)[C@H](CC(C)C)NC(=O)[C@H](CCC(N)=O)NC(=O)[C@@H](N)[C@@H](C)O)[C@@H](C)O)[C@@H](C)CC)C(=O)O [Envelope 51-65]"
  Target Or Test System: "DRB1*1501 (Homo sapiens, UniProt P01903+P01911)"
  Unit Spec: "nM"
  IC50: 982

Let us examine a further case.
Record C[C@@H](O)[C@H](NC(=O)[C@H](CO)NC(=O)[C@H](CO)NC(=O)[C@H](Cc1c[nH]cn1)NC(=O)[C@H](CCC(=O)O)NC(=O)[C@H](CCC(=O)O)NC(=O)[C@@H](N)CCCCN)C(=O)N[C@@H](Cc1c[nH]c2ccccc12)C(=O)N[C@@H](Cc1c[nH]cn1)C(=O)N[C@@H](Cc1ccc(O)cc1)C(=O)N[C@@H](CC(=O)O)C(=O)N[C@@H](CC(=O)O)C(=O)N[C@@H](CCC(=O)O)C(=O)N[C@@H](CC(N)=O)C(=O)N1CCC[C@H]1C(=O)N[C@@H](Cc1ccc(O)cc1)C(=O)N[C@@H](CCCCN)C(=O)O [NS5 284-300] , field IC50: 5900

---

Target: DRB5*0101 (Homo sapiens, UniProt P01903+Q30154)
Experiment: biochemical
Format: binding
The entries below are paired with their reported IC50.

- Smiles Text: "CSCC[C@H](NC(=O)[C@H](C)NC(=O)[C@H](CCSC)NC(=O)[C@H](CCC(N)=O)NC(=O)[C@@H](NC(=O)[C@@H](NC(=O)[C@H](CCSC)NC(=O)[C@@H]1CCCN1C(=O)[C@@H](NC(=O)[C@@H](NC(=O)[C@H](CC(=O)O)NC(=O)[C@H](Cc1c[nH]c2ccccc12)NC(=O)[C@@H]1CCCN1)C(C)C)C(C)C)C(C)C)[C@@H](C)O)C(=O)N[C@H](C(=O)N[C@@H](CC(=O)O)C(=O)N[C@H](C(=O)N[C@H](C(=O)O)[C@@H](C)O)[C@@H](C)O)[C@@H](C)O"
  Attribute Measured: "IC50"
  Value Measured: "1040 nM"
- Smiles Text: "CC[C@H](C)[C@H](N)C(=O)N[C@@H](CCCNC(=N)N)C(=O)N[C@@H](Cc1ccc(O)cc1)C(=O)N[C@@H](CCC(N)=O)C(=O)N[C@H](C(=O)N[C@H](C(=O)N[C@@H](C)C(=O)N[C@H](C(=O)N[C@@H](CCCCN)C(=O)N[C@@H](CO)C(=O)N[C@@H](CCC(=O)O)C(=O)N[C@@H](Cc1c[nH]cn1)C(=O)N[C@H](C(=O)NCC(=O)N[C@@H](CCCNC(=N)N)C(=O)O)[C@@H](C)O)[C@@H](C)O)[C@@H](C)O)[C@@H](C)O"
  Attribute Measured: "IC50"
  Value Measured: "17 nM"

Let us examine a further case.
Sample CC[C@H](C)[C@H](NC(=O)[C@H](CS)NC(=O)[C@H](Cc1ccccc1)NC(=O)[C@H](CCC(N)=O)NC(=O)[C@H](CC(N)=O)NC(=O)[C@H](CC(N)=O)NC(=O)[C@H](CCCCN)NC(=O)[C@H](CC(C)C)NC(=O)[C@H](Cc1c[nH]c2ccccc12)NC(=O)[C@@H]1CCCN1C(=O)[C@H](CCC(=O)O)NC(=O)[C@@H](NC(=O)[C@H](CCSC)NC(=O)[C@H](CCCCN)NC(=O)[C@@H](N)CC(C)C)C(C)C)C(=O)N[C@@H](CCCCN)C(=O)N[C@H](C(=O)O)C(C)C , system: DRB5*0101 (Homo sapiens, UniProt P01903+Q30154). Its IC50 is 20 nM

---

The entries below are paired with their reported pIC50.
Target: DRB4*0101 (Homo sapiens, UniProt P01903+P13762, G164S)
Test: biochemical
// pIC50: -log10(molar conc.)

- Compound: "CC[C@H](C)[C@H](NC(=O)[C@H](CCCCN)NC(=O)CNC(=O)[C@H](CCC(=O)O)NC(=O)[C@@H](NC(=O)[C@H](CS)NC(=O)[C@H](CC(C)C)NC(=O)[C@H](CCCCN)NC(=O)[C@H](CCCNC(=N)N)NC(=O)[C@H](CC(C)C)NC(=O)[C@@H](NC(=O)[C@H](C)NC(=O)[C@H](CC(C)C)NC(=O)[C@H](CCC(N)=O)NC(=O)[C@@H](N)[C@@H](C)O)[C@@H](C)O)[C@@H](C)CC)C(=O)O [Envelope 51-65]"
  pIC50: 6.81
- Compound: "CC[C@H](C)[C@H](NC(=O)[C@H](CC(C)C)NC(=O)[C@H](CO)NC(=O)CNC(=O)[C@H](CS)NC(=O)[C@H](Cc1c[nH]c2ccccc12)NC(=O)[C@H](CCC(N)=O)NC(=O)[C@H](CC(=O)O)NC(=O)[C@H](CCC(=O)O)NC(=O)[C@H](CCCNC(=N)N)NC(=O)[C@H](CCCCN)NC(=O)CNC(=O)[C@H](CC(C)C)NC(=O)[C@@H](N)Cc1ccc(O)cc1)C(=O)NCC(=O)N[C@@H](CC(C)C)C(=O)N[C@H](C(=O)O)[C@@H](C)O [NS5 838-854]"
  pIC50: 5.80
- Compound: "CSCC[C@H](NC(=O)[C@@H](NC(=O)[C@H](Cc1ccccc1)NC(=O)[C@H](CCCNC(=N)N)NC(=O)[C@H](CC(N)=O)NC(=O)[C@H](CC(C)C)NC(=O)[C@H](CC(C)C)NC(=O)[C@H](CC(C)C)NC(=O)[C@H](CCCNC(=N)N)NC(=O)[C@H](CO)NC(=O)[C@@H](NC(=O)[C@@H](N)CCSC)C(C)C)[C@@H](C)O)C(=O)N[C@H](C(=O)N[C@@H](Cc1c[nH]cn1)C(=O)N[C@@H](CCCNC(=N)N)C(=O)N[C@@H](CCCNC(=N)N)C(=O)O)[C@@H](C)O [NS5 233-248]"
  pIC50: 6.21
- Compound: "CC[C@H](C)[C@H](N)C(=O)N[C@@H](CO)C(=O)N[C@@H](Cc1ccc(O)cc1)C(=O)NCC(=O)NCC(=O)NCC(=O)N[C@@H](Cc1c[nH]c2ccccc12)C(=O)N[C@@H](CCCNC(=N)N)C(=O)N[C@@H](CC(C)C)C(=O)N[C@@H](CO)C(=O)N[C@@H](C)C(=O)N[C@@H](CCC(N)=O)C(=O)N[C@@H](Cc1c[nH]c2ccccc12)C(=O)N[C@@H](CCC(N)=O)C(=O)N[C@@H](CCCCN)C(=O)O [NS3 77-91]"
  pIC50: 6.15
- Compound: "CC[C@H](C)[C@H](NC(=O)[C@@H](NC(=O)[C@H](CC(C)C)NC(=O)[C@H](CC(N)=O)NC(=O)[C@H](CCCNC(=N)N)NC(=O)[C@H](CCCCN)NC(=O)[C@@H](N)CCCCN)[C@@H](C)O)C(=O)N[C@@H](CCSC)C(=O)N[C@@H](CC(=O)O)C(=O)N[C@@H](CC(C)C)C(=O)N[C@@H](Cc1c[nH]cn1)C(=O)N1CCC[C@H]1C(=O)NCC(=O)N[C@@H](CO)C(=O)NCC(=O)O [NS3 185-199]"
  pIC50: 8.12
- Compound: "CC[C@H](C)[C@H](NC(=O)[C@@H]1CCCN1C(=O)[C@H](CCC(=O)O)NC(=O)[C@H](CC(C)C)NC(=O)[C@@H](N)CS)C(=O)N[C@@H](CCC(=O)O)C(=O)NCC(=O)N[C@@H](CCCCN)C(=O)N[C@H](C(=O)N[C@H](C(=O)N[C@@H](CCC(N)=O)C(=O)N[C@@H](Cc1ccc(O)cc1)C(=O)N[C@@H](CCC(=O)O)C(=O)N[C@@H](CC(N)=O)C(=O)N[C@@H](CC(C)C)C(=O)O)C(C)C)C(C)C [Envelope 121-135]"
  pIC50: 5.96

Record CC[C@H](C)[C@H](NC(=O)[C@H](CC(=O)O)NC(=O)CNC(=O)[C@@H](NC(=O)[C@@H](NC(=O)[C@@H](NC(=O)[C@@H](NC(=O)[C@H](CC(C)C)NC(=O)[C@@H](N)CCCCN)[C@@H](C)O)C(C)C)C(C)C)C(C)C)C(=O)N[C@H](C(=O)NCC(=O)N[C@H](C(=O)N[C@@H](CC(C)C)C(=O)N[C@@H](CCC(=O)O)C(=O)N[C@@H](CCC(N)=O)C(=O)O)C(C)C)[C@@H](C)CC [NS1 85-99] , field pIC50: 6.66

Record CC[C@H](C)[C@H](NC(=O)[C@@H]1CCCN1C(=O)[C@H](CC(C)C)NC(=O)CNC(=O)[C@@H](N)CCCCN)C(=O)N[C@@H](CCCNC(=N)N)C(=O)N[C@@H](Cc1ccc(O)cc1)C(=O)N[C@@H](CCC(N)=O)C(=O)N[C@H](C(=O)N[C@H](C(=O)N[C@@H](C)C(=O)N[C@H](C(=O)N[C@@H](CCCCN)C(=O)N[C@@H](CO)C(=O)N[C@@H](CCC(=O)O)C(=O)O)[C@@H](C)O)[C@@H](C)O)[C@@H](C)O [NS3 237-251] , field pIC50: 8.26

Record CC[C@H](C)[C@H](NC(=O)[C@@H](N)C(C)C)C(=O)N[C@@H](CC(C)C)C(=O)N[C@H](C(=O)N[C@@H](CC(=O)O)C(=O)NCC(=O)N1CCC[C@H]1C(=O)N[C@@H](CCC(=O)O)C(=O)N[C@@H](CCCNC(=N)N)C(=O)N[C@H](C(=O)N[C@H](C(=O)N[C@@H](CC(C)C)C(=O)N[C@@H](C)C(=O)NCC(=O)N1CCC[C@H]1C(=O)O)[C@@H](C)CC)C(C)C)[C@@H](C)O [NS3 433-447] , field pIC50: 5.46
